target: Replicase polyprotein 1ab (Severe acute respiratory syndrome coronavirus 2); test: Inhibition of SARS-CoV-2 MPro
Reported IC50 is given for each of the following molecules.

Illustrative cases are given below, each with its answer.
chemical smiles | IC50
O=C[C@@H](C[C@@H]1CCNC1=O)NC(=O)[C@@H](Cc1cccc(F)c1)NC(=O)c1cc2ccccc2[nH]1 | 0.04 µM
CN(C)C(=O)COC(=O)Cc1ccc(OC(=O)c2ccc(NC(=N)N)cc2)cc1 | > 20 µM

Data point: `Cc1cccc(C)c1OCC(=O)N[C@@H](Cc1ccccc1)[C@@H](O)C[C@H](Cc1ccccc1)NC(=O)[C@H](C(C)C)N1CCCNC1=O` ; IC50 = > 20 µM

====

target: Replicase polyprotein 1ab (Severe acute respiratory syndrome coronavirus 2, UniProt P0DTD1); assay: Inhibition of SARS-CoV-2 PLpro expressed in Escherichia coli
measure name: IC50
Don't forget the unit after the value.

Data point: `CC(=O)Nc1ccc(C)c(C(=O)N[C@@H](C)c2cccc3ccccc23)c1` ; IC50 = 5 µM

====

test: Inhibition of recombinant MERS-CoV MPro; parameters: species or system Middle East respiratory syndrome-related coronavirus
measure name: IC50 (nM)
Please give a number only; it is taken to be in nM.

Data point: `CC(C)(C)OC(=O)Nc1cccn([C@H](CC2CC2)C(=O)N[C@H](C[C@@H]2CCNC2=O)C(=O)C(=O)NCc2ccccc2)c1=O` ; IC50 = 580

Data provenance: ChEMBL document CHEMBL5096141
